From: patent US20090221624A1

Would you mind telling me the reported CC50 of each entry?
run.description: in vitro
measurement.setup: EBOV CC50
Answers are plain numbers, in µM.

Some solved entries appear below for comparison.
mol	CC50, µM
Cc1ccc2nc3c(c(Nc4ccccc4)c2c1)CCC3	50.7
Cc1cc(Nc2ccc(C)c(Cl)c2)c2cccc(C)c2n1	66.2
COC(=O)c1ccc(Nc2cc(C)nc3c(C)cccc23)cc1	45.9

Next item in the queue.
Q. What value of CC50 has been recorded for this entry: `CCOC(=O)c1cnc2c(OC)cccc2c1NCc1cccnc1`
A. 51

* * *

So I've got a bunch of compounds here, and I need their CC50 values.
run.description: in vitro
measurement.setup: RSV CC50
One number for each entry, in µM.

# annotated cases, reported CC50 shown
mol	CC50, µM
Cc1ccc2nc3c(c(Nc4ccccc4)c2c1)CCC3	50.7
CCOC(=O)c1ccc(Nc2cc(C)nc3c2ccc2ccccc23)cc1	72.9
Cc1cccc(Nc2c3c(nc4ccccc24)CCC3)c1	28.8

Go through the list and state CC50 for each entry.
1. CCOC(=O)c1ccc2nc(C)cc(Nc3ccc(C)cc3C)c2c1
2. Cc1cc(C)c2nc(C)cc(Nc3ccc(O)cc3)c2c1

A.
[56.1, 39.3]
